Examples of binders with documented koff follow.
Biological target: T1, recombinant hIL-6R protein, monomeric form (human, UniProt P08887 20-358)
T1 construct: also called monomeric hIL-6R; Human IL6R
T1 sequence: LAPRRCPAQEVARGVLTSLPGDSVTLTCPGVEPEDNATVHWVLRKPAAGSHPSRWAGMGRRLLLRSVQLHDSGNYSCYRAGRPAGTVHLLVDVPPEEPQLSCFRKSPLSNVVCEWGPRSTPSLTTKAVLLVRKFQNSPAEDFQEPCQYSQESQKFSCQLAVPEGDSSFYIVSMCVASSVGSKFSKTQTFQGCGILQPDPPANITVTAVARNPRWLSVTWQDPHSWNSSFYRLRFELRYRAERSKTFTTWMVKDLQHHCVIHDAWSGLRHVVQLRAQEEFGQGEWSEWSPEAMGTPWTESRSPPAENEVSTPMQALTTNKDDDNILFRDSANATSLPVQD
Test: SPR (BIAcore), antibody captured on goat anti-human Fc, monomeric hIL-6R 1.56-12.5 nM
// return numeric value only (unit: s⁻¹, not printed)

Query VQ1G4-21 hIgG4 (antibody, V domains shown, Human IgG4 constant region) VH: QVQLVQSGAEVKEPGASVKVSCKASGYTFTSYDIIWVRQATGQGLEWMGWMNPNSGNTGYTQNLQGRVTLTRNTSITTVYMELSSLSSEDTAVYYCARDYSSHYYGLDVWGQGTTVTVSS VL: DIQLTQSPSFLSTSIGDRVTITCWASQDISNYLAWYQQKPGKAPKLLIFVASTLQSGVPSRFSGSGSGTEFTLTISSLQPEDFATYYCQQFNSYPLTFGGGTKVEIK yields koff of 9.18e-05

***
Entry VQ8A9-6 hIgG4 (antibody, V domains shown, Human IgG4 constant region) VH: EVQLVESGGNLVQPGRSLRLSCAASGFIFDDYAMHWVRQAPGKGLEWVSGISWNSGSIGYADSVKGRFTISRDNAKNSLYLQMNSLRAEDTALYYCAKDGGSSWLPFVYYYGMDVWGQGTTVTVSS VL: EIVMTQSPATLSVSPGERATLSCRASQSISSNFAWYQQKPGQAPRLLIYGASTRATGIPARFSGSGSGTDFTLTISSLQSEDFAVYYCQQYSSWPPYTFGQGTKLEIK ; koff = 0.000235

response.value for VV6A9-5 hIgG4 (antibody, V domains shown, Human IgG4 constant region) VH: EVQLVESGGGLVQPGRSLRLSCAASGFTFDDYALHWVRQAPGKGLEWVSGVSWNGGRIGYADSVKGRFTISRDNAKNSLFLQMNSLRVEDTALYYCAKGRDAFDIWGQGTLVTVSS VL: DIQMTQSPSSVSASVGDRVTITCRASQGISSWLAWYQQKPGKAPKLLIYAASSLQSGVPSRFSGSGSGTDFTLTISSLQPEDFATYYCQHAYSFPYTFGQGTKLEIK (field: koff) = 7.64e-05
